Collected recombinant barcode read abundance (log10) values appear next to each entry.
Assay: recombinant barcode read abundance after kanamycin selection (control-corrected) (log10(CPM+1)); higher = more efficient recombination; sequences stand for … in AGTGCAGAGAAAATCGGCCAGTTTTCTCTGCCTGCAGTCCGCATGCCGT…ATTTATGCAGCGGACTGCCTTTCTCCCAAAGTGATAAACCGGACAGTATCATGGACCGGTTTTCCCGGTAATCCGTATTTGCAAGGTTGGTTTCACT; site = the 11-nt target

Worked examples, 5 sequences total:
>>> reported_measurement("TGATACCCGTGGGTTCTAACCTGTTGCGTAG [TGATACCCTAC_LTGcore_CG_RTGcore_CT] (site TGATACCCTAC) (LTG core: CG, RTG core: CT)")
0.907
>>> reported_measurement("ATGCTTTCTTGGGTTCTAACCTGTTGCCTCA [ATGCTTTCTAG_LTGcore_CT_RTGcore_TG] (site ATGCTTTCTAG) (LTG core: CT, RTG core: TG)")
0.153
>>> reported_measurement("GAGCCCACATGGGTTCTAACCTGTTGCCTTG [GAGCCCACTAG_LTGcore_CA_RTGcore_CA] (site GAGCCCACTAG) (LTG core: CA, RTG core: CA)")
0.49
>>> reported_measurement("AGGCGGGCTTGGGTTCTAACCTGTTGCGGGG [AGGCGGGCTCC_LTGcore_CT_RTGcore_CC] (site AGGCGGGCTCC) (LTG core: CT, RTG core: CC)")
0.756
>>> reported_measurement("AAACACACTTGGGTTCTAACCTGTTGCCTCC [AAACACACTAG_LTGcore_CT_RTGcore_GG] (site AAACACACTAG) (LTG core: CT, RTG core: GG)")
1.45

Read the entry ATGCTTTCTTGGGTTCTAACCTGTTGCCTCC [ATGCTTTCTAG_LTGcore_CT_RTGcore_GG] (site ATGCTTTCTAG) (LTG core: CT, RTG core: GG) and write its reported recombinant barcode read abundance (log10).
0.127
